All values here come from patent US20240376151A1.

biological target: PPIA (Homo sapiens); construct: Full length PPIA (residues 1-165) with an N-terminal 6×his-yBBR-TEV tag; 6×his-yBBR-TEV (N); made in house; host or cells: E. coli BL21 (DE3) CodonPlus RIPL; assay: Phage Library Screening with NGS, PPIA; type: binding; details: target concentration 30
Sequence (P62937 whole entry, the tested form may be a part): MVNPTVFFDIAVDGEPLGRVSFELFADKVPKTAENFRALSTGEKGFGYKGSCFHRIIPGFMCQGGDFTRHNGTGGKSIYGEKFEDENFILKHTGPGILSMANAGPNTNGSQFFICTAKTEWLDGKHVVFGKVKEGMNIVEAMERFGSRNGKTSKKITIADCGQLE
Bridge positions count the residues as written; N and C are the ends.
quantity: phage screen counts, Target Concentration 30
Form: value (number only, do not type unit).

• PDCHIRAYMCN = 0
• DPARADCRVAAYWCYHQ = 1
• PDCHIASWFCS = 0
• DPAAHDCHIAAYWCLNY = 7
• DPARADCQVAAYWCYHQ = 3

Looking up "PTCHIHAYHCY" , I found its phage screen counts, Target Concentration 30 recorded as 0

Looking up "PNCHVEAWYCI" , I found its phage screen counts, Target Concentration 30 recorded as 0

Looking up PDCHIRAYVCH (Ac-PDCHIRAYVCH-NH2; bridge 3-10; also: Cys-Cys staple, linker not named) , I found its phage screen counts, Target Concentration 30 recorded as 0

Looking up "PDCHIQAYICH" , I found its phage screen counts, Target Concentration 30 recorded as 0

Looking up "DPARADCHVAAYWCYQQ" , I found its phage screen counts, Target Concentration 30 recorded as 1

Looking up "DPAYYDCHIAAYFCRTQ" , I found its phage screen counts, Target Concentration 30 recorded as 62

Looking up "DPASYDCHVAAYFCNFA" , I found its phage screen counts, Target Concentration 30 recorded as 10

Looking up "DPAQADCHIAAYLCLFD" , I found its phage screen counts, Target Concentration 30 recorded as 0

----------
Target: RNF31 PUB domain (Homo sapiens, UniProt Q96EP0)
Construct: MBP-TEV (N, cleaved yes); made in house; host or cells: E. coli BL21 (DE3) pLysS
Sequence (Q96EP0 1-179): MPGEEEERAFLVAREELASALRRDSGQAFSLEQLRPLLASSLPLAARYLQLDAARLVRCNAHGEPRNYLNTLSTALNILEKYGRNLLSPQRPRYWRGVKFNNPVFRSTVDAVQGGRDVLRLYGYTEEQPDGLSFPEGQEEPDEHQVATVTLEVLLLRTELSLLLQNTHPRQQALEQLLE
Test: Phage Library Screening with NGS, RNF31 PUB domain
Assay type: binding
Conditions: RNF31 PUB domain clusters C41-C45; target concentration 10
quantity: Phage library screen NGS readout, Target Concentration 10
Form: value (number only, do not type unit).

# annotated cases, reported Phage library screen NGS readout, Target Concentration 10 shown
• DPAIYQCSLAADICSTY = 1
• DPAYWHCLYAAASCDDI = 0
• DPAIQECLLAAATCWTY = 0
• DPAEQFCLYAAYDCYSE = 2
• DPAWWNCLYAAYECNHA = 1

Looking up "DPAYWDCMYAAFYCDDI" , I found its Phage library screen NGS readout, Target Concentration 10 recorded as 0

Looking up "DPAQDWCMYAAYECDAH" , I found its Phage library screen NGS readout, Target Concentration 10 recorded as 0

Looking up "DPAYWQCIYAAWDCDQM" , I found its Phage library screen NGS readout, Target Concentration 10 recorded as 0

Looking up "DPAHTWCMYAAFDCFES" , I found its Phage library screen NGS readout, Target Concentration 10 recorded as 1

Looking up "DPAYEDCADAAMYCDMD" , I found its Phage library screen NGS readout, Target Concentration 10 recorded as 0

----------
Target: CHIP (Homo sapiens)
Construct: N-term truncated CHIP (also known as STUB1, Uniprot ID: Q9UNE7, residues 23-303); made in house; host or cells: E. coli BL21 CodonPlus
Sequence (Q9UNE7 23-303): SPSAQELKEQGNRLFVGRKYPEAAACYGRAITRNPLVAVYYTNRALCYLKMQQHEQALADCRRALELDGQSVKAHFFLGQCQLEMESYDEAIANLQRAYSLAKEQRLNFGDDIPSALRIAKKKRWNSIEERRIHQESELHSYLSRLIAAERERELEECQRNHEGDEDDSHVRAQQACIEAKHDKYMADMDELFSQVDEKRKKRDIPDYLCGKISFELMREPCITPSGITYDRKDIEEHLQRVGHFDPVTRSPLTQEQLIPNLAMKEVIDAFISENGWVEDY
Experiment: Naive Library Presenter Screening (phage, NGS), CHIP
Assay type: binding
Settings: CHIP clusters (C83, C84); target concentration 300 nM
Numbered stars: 1 amine (or outer) side, 2 acyl side, 3 side chain; on linkers, the order of the positions; unused ones are H or OH. Bridge positions count the residues as written; N and C are the ends. Ends that are not written are not given here. Phenylene(1,4-NHCOCH2)2 = O=C(C[*:1])Nc1ccc(NC(=O)C[*:2])cc1
Parameter threshold = 20. Response is YES when interaction data at Target Concentration 300 meets or exceeds it, else NO.

These solved cases illustrate the format of a correct answer.
- DPALEECTQAAHICMVD (linker 7-14 via Phenylene(1,4-NHCOCH2)2 (inferred); not fully specified (C-terminus)): NO
- DPASQWCQRAASICWID (DPASQWCQRAASICWID-NH2; linker 7-14 via Phenylene(1,4-NHCOCH2)2 (inferred)): NO
- DPAFWVCQYAAAMCQDV (linker 7-14 via Phenylene(1,4-NHCOCH2)2 (inferred)): YES
- DPAMWHCQYAAIMCNAN (DPAMWHCQYAAIMCNAN-NH2; linker 7-14 via Phenylene(1,4-NHCOCH2)2 (inferred)): NO
- DPAQYNCYFAANICTVD (DPAQYNCYFAANICTVD-NH2; linker 7-14 via Phenylene(1,4-NHCOCH2)2 (inferred)): YES
- DPAFERCQLAAAFCYDS (linker 7-14 via Phenylene(1,4-NHCOCH2)2 (inferred)): NO

Task: Confirm if interaction data at Target Concentration 300 reported for the sequence DPALWNCQYAAVMCTQL (linker 7-14 via Phenylene(1,4-NHCOCH2)2 (inferred); not fully specified (C-terminus)) is 20 or above.
Result: NO

Task: Confirm if interaction data at Target Concentration 300 reported for the sequence DPAELFCTEAADICMVD (linker 7-14 via Phenylene(1,4-NHCOCH2)2 (inferred)) is 20 or above.
Result: NO

Task: Confirm if interaction data at Target Concentration 300 reported for the sequence DPAVRWCAAAAAICMVD (linker 7-14 via Phenylene(1,4-NHCOCH2)2 (inferred); not fully specified (C-terminus)) is 20 or above.
Result: YES

----------
Target: beta-catenin (Homo sapiens)
Construct: made in house; host or cells: E. coli BL21 (DE3) pLysS
Sequence (P35222 134-665): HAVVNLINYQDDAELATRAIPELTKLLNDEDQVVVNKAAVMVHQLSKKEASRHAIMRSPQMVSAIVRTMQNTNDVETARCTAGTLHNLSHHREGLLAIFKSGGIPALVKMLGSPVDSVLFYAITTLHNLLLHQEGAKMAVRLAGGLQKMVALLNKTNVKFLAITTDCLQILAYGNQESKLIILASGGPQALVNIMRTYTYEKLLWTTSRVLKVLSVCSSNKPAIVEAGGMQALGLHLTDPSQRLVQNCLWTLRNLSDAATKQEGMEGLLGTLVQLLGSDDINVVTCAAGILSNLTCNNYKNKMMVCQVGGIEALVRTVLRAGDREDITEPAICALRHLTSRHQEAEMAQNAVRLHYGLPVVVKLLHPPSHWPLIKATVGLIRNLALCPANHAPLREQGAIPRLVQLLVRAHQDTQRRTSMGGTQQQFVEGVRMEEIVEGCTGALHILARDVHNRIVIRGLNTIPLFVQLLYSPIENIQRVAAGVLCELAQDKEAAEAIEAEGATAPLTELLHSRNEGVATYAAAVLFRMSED
Assay: Phage Library Screening with NGS, beta-catenin
Type: binding
Conditions: BLANK, fourth column
quantity: Target Concentration BLANK (phage screen NGS readout)
Form: value (number only, do not type unit).

• DPAFESCFLAAHICYWE = 0
• DPAEVECMLAAHVCRAF = 0
• DPADTECILAAHFCHYF = 0

Response field Target Concentration BLANK (phage screen NGS readout) (beta-catenin (Homo sapiens)) for item "DPAWQNCTWAAFHCELL" : 0

----------
Target: beta-catenin (Homo sapiens, UniProt P35222)
Construct: made in house; host or cells: E. coli BL21 (DE3) pLysS
Sequence (P35222 134-665): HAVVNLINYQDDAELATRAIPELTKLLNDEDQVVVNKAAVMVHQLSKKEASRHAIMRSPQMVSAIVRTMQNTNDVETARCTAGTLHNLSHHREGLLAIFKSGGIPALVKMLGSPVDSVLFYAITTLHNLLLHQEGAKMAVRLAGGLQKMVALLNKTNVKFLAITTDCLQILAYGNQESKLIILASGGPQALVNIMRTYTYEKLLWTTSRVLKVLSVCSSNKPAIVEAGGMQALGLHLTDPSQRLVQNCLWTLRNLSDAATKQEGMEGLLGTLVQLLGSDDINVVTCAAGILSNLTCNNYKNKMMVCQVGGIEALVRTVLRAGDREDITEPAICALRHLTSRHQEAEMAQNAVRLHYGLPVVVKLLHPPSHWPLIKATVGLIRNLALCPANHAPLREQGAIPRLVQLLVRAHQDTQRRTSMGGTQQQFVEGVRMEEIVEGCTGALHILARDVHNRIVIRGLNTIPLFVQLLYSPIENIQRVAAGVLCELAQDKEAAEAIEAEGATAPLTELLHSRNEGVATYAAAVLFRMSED
Assay: Phage Library Screening with NGS, beta-catenin
Format: binding
Details: beta-catenin target concentration 1000; first 1000 column
quantity: Target Concentration 1000 (phage screen NGS readout)
Form: value (number only, do not type unit).

- DPAQQDCTLAAHVCRVF: 70
- DPAEFYCEMAAVHCELL: 61
- DPAAQRCTWAAIHCELI: 25
- DPANVECEWAAIHCSLV: 164
- DPAQNICEWAALHCDLI: 177
- DPAIMACYEAAYLCDYI: 111

Response field Target Concentration 1000 (phage screen NGS readout) (beta-catenin (Homo sapiens, UniProt P35222)) for item "DPAILECYEAAFECQYM" : 41

Response field Target Concentration 1000 (phage screen NGS readout) (beta-catenin (Homo sapiens, UniProt P35222)) for item "DPAILDCQLAAIDCVYT" : 201

Response field Target Concentration 1000 (phage screen NGS readout) (beta-catenin (Homo sapiens, UniProt P35222)) for item "DPAVEDCVLAAHVCAWF" : 49

Response field Target Concentration 1000 (phage screen NGS readout) (beta-catenin (Homo sapiens, UniProt P35222)) for item "DPASWRCEHAALNCQID" : 21

Response field Target Concentration 1000 (phage screen NGS readout) (beta-catenin (Homo sapiens, UniProt P35222)) for item "DPATIRCYEAAFMCQYW" : 21
